B1: Pistol ribozyme (parent)
chain: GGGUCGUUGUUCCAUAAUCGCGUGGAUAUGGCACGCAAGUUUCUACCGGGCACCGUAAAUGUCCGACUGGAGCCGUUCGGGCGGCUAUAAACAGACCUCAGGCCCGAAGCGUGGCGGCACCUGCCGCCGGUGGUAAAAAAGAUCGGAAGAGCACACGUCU

- Variants of: B1
- TEST DESCRIPTION: aptazyme ON/OFF ratio, guanine; higher = stronger switching; co-transcriptional cleavage with and without guanine
VALUE KIND: aptazyme ON/OFF ratio
// print number alone

Name the recorded aptazyme ON/OFF ratio of the item U7A U8C G9U U10G U11G C13A in your answer.
1.18

***
Report aptazyme ON/OFF ratio for U7C U8A G9U U10A U11G C12U C13A
1.16

Dear colleague, please send me the reported aptazyme ON/OFF ratio for U7A U8C U11C C13G when you can.
1.13

Look up and report measured aptazyme ON/OFF ratio for this entry: U8C G9A U10C U11C C13G
1.02

Supply aptazyme ON/OFF ratio value. Item: U7C G9U C12A C13A
1.18

Please report the measured aptazyme ON/OFF ratio for U7C U8C G9U U10G U11G
1.21
